Taken from ChEMBL document CHEMBL1132891.

biological target: Integrin alpha-4 (Homo sapiens, UniProt P13612); assay: Inhibitory concentration against VLA-4 receptor using human VCAM-VLA-4 binding assay
Sequence (P13612 whole entry): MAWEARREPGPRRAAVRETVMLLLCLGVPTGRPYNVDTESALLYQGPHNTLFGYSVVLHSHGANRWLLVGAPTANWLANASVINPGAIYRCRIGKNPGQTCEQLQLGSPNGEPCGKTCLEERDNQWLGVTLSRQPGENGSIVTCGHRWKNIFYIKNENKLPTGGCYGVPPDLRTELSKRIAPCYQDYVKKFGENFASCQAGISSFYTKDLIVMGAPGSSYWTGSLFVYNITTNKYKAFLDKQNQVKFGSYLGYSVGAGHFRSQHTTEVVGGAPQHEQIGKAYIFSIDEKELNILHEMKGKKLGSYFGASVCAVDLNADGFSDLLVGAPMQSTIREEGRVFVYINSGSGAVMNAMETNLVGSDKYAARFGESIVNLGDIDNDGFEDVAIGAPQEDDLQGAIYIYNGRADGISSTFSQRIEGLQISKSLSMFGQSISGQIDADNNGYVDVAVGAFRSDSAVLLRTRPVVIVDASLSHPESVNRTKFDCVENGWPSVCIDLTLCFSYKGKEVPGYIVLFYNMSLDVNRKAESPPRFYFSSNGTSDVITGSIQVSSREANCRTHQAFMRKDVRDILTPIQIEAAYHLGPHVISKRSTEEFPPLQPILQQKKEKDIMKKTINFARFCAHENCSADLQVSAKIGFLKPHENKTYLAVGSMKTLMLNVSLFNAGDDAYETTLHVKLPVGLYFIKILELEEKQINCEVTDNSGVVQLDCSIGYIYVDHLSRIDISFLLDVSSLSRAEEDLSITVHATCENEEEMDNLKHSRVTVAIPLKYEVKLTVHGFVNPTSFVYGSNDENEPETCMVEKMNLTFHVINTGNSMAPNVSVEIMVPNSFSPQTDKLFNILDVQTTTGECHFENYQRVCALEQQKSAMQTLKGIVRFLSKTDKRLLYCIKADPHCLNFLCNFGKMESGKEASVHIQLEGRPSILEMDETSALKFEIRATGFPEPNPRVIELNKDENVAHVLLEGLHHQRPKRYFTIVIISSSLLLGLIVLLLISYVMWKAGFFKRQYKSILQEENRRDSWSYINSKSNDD
pIC50: −log10 of the molar value.
true (1) means recorded pIC50 is 7 or above; false (0) means it is below 7.

INPUT: Reported pIC50 reaches at least 7 for "N[C@@H](Cc1ccc(O)cc1)C(=O)N[C@H]1CSSC[C@@H](C(=O)O)NC(=O)C2(CCCC2)CCNC1=O" ?
OUTPUT: true (1)

INPUT: Reported pIC50 reaches at least 7 for N[C@@H](Cc1ccc(O)cc1)C(=O)NC1CCCC[C@@H](C(=O)O)NC(=O)C2(CCCC2)CCNC1=O (stereo in doubt; 14a) ?
OUTPUT: true (1)

INPUT: Reported pIC50 reaches at least 7 for "N[C@@H](Cc1ccc(O)cc1)C(=O)N/C1=C/CCCC[C@@H](C(=O)O)NC(=O)C2(CCCC2)CCNC1=O" ?
OUTPUT: false (0)

INPUT: Reported pIC50 reaches at least 7 for N[C@@H](Cc1ccc(O)cc1)C(=O)NC1CCCCC[C@@H](C(=O)O)NC(=O)C2(CCCC2)CCNC1=O (stereo in doubt; 15b) ?
OUTPUT: false (0)

INPUT: Reported pIC50 reaches at least 7 for N[C@@H](Cc1ccc(O)cc1)C(=O)NC1CCCCC[C@@H](C(=O)O)NC(=O)C2(CCCC2)CCNC1=O (stereo in doubt; 14b) ?
OUTPUT: false (0)
